- assay.procedure: yeast display, Sf9 membrane polyspecificity reagent, FACS + sequencing; frameworks hold sequencing errors
measure.name: polyreactivity (PSR sort gate)

Solved entries:
sequence	polyreactivity (PSR sort gate)
QVQLEESGGGLVQAGGSIRLSCAASGSTFYTNAMGWYRQAPGKERELVAAISSSGDSTYYADSVKGRFTISRDTAKNTVYLQMNSLKPEDTAVYYCNADRRSYNGFRYYYWGQGTQVTVSS	low polyreactivity
QDQLVESGGGLVQAGGSLRLSCAASGSTFEYYAMGWYRQAPGKERELVAAITRRGGSTYYADSVKGRFTISRDNAKNTVYLQMNSLKPEDTAVYYCAAVPTQKSQRTHDYCGQGTQVTVSS	low polyreactivity
QVQLVESGVGLVQAGGSLRLSCAASGTTIVSYAMGWYRQAPGKEMEFVATISISGTSTYYADSVKGRFTISRDNAKNTVYLQMNSLKPEDTAVYYCAARLRPRGATQFYRYDYWGQGTQVTVSS	high polyreactivity
QVQLVESGGGLVQAGGSLRLSCAATGRTFVSNAMGWYRQAPGKERELVAAISSSTGSTYYADSVKGRFTISRDNAKNTVYLQMNSLKPEDTAVYYCAAYLLGRSPYDYWGQGTQVTVSS	low polyreactivity

Please turn your attention to the following entry.
Inquiry: Quick one: polyreactivity (PSR sort gate) for QVQLVESGGGLVQAGGSLRLSCAASGIIFYSYAMGWYRQAPGKERELVAAISRSSGRTYYADSVKGRFTISRDNAKNTVYLQMNSLKPEDTAVYYCATDYYYYPWEYDYWGQGTQVTVSS ?
Reply text: high polyreactivity

* * *

- assay.procedure: yeast display, Sf9 membrane polyspecificity reagent, FACS + sequencing; frameworks hold sequencing errors
measure.name: polyreactivity (PSR sort gate)

Guide cases for polyreactivity (PSR sort gate), answers given:
sequence	polyreactivity (PSR sort gate)
QVQLVESGGGLVQAGGSLRLSCSASGIIFPTYAMGLYRQAPGKERELVAAIRWTGGSTYYADSVKGRFTISRDNAKNTVYLQMNSLKPEDTAVYYCAAAYRGRYKYYYWGQGTQVTVSS	high polyreactivity
QVQLVESGGGLVQAGGSLRLSCAASGSICSSYAMGWYRQAPGKERELVAAISGSGGSTFYADSVKGRFTISRDNAKNTVYLQMNSLKPEDTAVYYCAARYYWYGRAGKKHASYYYWGQGTQVTVSS	high polyreactivity
QVQLVESGGGLVQAGGSLRLSCAASGRIFDRYDMGWYRQAPGKERELVAGITASGGSTYYADSVKGRFTISRDNAKNTVYLQMTSLKPEDTAVYYCAVVYGYRYYYWGQGTQVTVSS	high polyreactivity
QVQLVESGGGLVQAGGSLRLICAASGSTVYNAMGWYRQAPGTEREFVAVITDSDGSTYYADSVKGRFTISRDNAKNTVYLQMNSLKPEDTAVYDCAADDYAYSYGYWLTYDYWGQGTQVTVSS	low polyreactivity

Moving on to the next sequence.
Inquiry: Entry under review: QVQLVESGGGLVQAGGSLRLSCAASGSTFFPNGMGWYRQAPGKERELVAAITQDGGSTYYADSVKGRFTISRDNAKNTVYLQMNSLKPEDTAVYYCNADYFVWYIGRVFSRYGYWGQGTQVTVSS . Reported polyreactivity (PSR sort gate)?
Reply text: low polyreactivity

* * *

- assay.procedure: yeast display, Sf9 membrane polyspecificity reagent, FACS + sequencing; frameworks hold sequencing errors
measure.name: polyreactivity (PSR sort gate)

Use the examples below as a reference point.
sequence	reading
QVQLVESGGGLVQSRGSLSLICAASGRTYRTYTMGWYRQSPGKERQFVAAIDRTGGSTYYADSVKGRFTISRDNAKNTVYLQMNSLKPEDTAVYYCAATASYIYWGKIYGYDYWGQGTQVTVSS	high polyreactivity
QGQLVESGGGLGQAGGSLRLSCAASGSTSGIYAMGWYRQAPGKERELVAAIDTSGGSSYADSVKGRFTISRDNAKHTVYLQMNSLKPEDTAVYYCAKPFCSNSWSHGYWGQGTQVTVSS	low polyreactivity
QVQLVESGGGLVQAGGSLRLSCAASASIFVNNAKGWYRQATGKERELVAAISSRSSRTIYADSVKGRFTISRDNAKKTVYLQMNSLKPEDTAVYYCAVKKRAPDGDYWGQGTQVTVSS	high polyreactivity
QVQLVESGGGLVQAGGSLRLSCASSGITFRRYTMVWYRQAPGKERELVAAISRIGGSTYYADSVKGRFTISRDNAKNTVYLQMNSLKPEDTAVYYCATYYGGSGYDYWGQGTEVTVSS	high polyreactivity
QVQLVESGGGLVQAGGSLRLSCAASGSIFKENAMGWYRQAPGKERELVAAITSSGGNTYYADSVKGRFTISRDHAKNTVYIQMNSLKPEDTAVYYCNAGVPVRSTTTDGYWGQGTQVNVSS	high polyreactivity

Inquiry: For the sequence QVQLVESGGGLVQAGGSLRLSCAASGFTFTYYTMGWYRPAPGKERELVAGISRSGGSTYYADSVKGRFTISRDNAKNTVYLQMNSLKPEDTAVYYCFPGKTRLYGYWGQGTQVTVSS , what polyreactivity (PSR sort gate) is on record?
Reply text: high polyreactivity

Inquiry: Field request: polyreactivity (PSR sort gate) | item: QVQLVESGGGLVQAGGSLRLSCAASGRTFSANAMGWYRQAPGKERELVATISSGGRTNYADSVKGRFTISRDNAKNTVYLQMNSLKPEDTAVYYCAKRGPYNRWYGRYDYWGQGTQVTVSS
Reply text: low polyreactivity

Inquiry: Which polyreactivity (PSR sort gate) reading was recorded for the sequence QVQLVESGGGLVQAGGSLRLSCAASGSIFGTYAMGWYRQAPGKERELVAAISWSDGSTYYADSVKGRFTISRDNAKNTVYLQMNSLKPEDTAVYYCAKVYRSIGPNVSRYGLSYYYWGQGTQVTVSS ?
Reply text: low polyreactivity

Inquiry: Consider the sequence QVQLVESGGGLFQAGGSLRLSCAASGFNFDSNVMGWYRQAPGKERELVAAITGDDTTYYADSVKGRFTISRDNAKNTVYLQMNSLKPEDTAVYYCAADETESLEYTAYDMYYWGQGTQVTVSS and give its measured polyreactivity (PSR sort gate).
Reply text: low polyreactivity

Inquiry: Quick check: polyreactivity (PSR sort gate) of QVQLVESGGGLVQAGGSLRLSCAASGSIFYPYVMGRYRQAPGKEREFVAAITTSGGTTYYADSVKGRFTISLDNAKNTVYLKMNSLKPEDTAVYDCAARGTVPGWAIYDYWGQGTEVTVSS ?
Reply text: low polyreactivity

Inquiry: Report polyreactivity (PSR sort gate) for QVQLVESGGGLVQAGGSLRLSCAASGRIFTHYAMGWYRQAPGKERELVAAISRTGGTTNYADSVKGRFTISRDNAKNTVYLQMNSLKPEDTAVYYCAAVGKGAKDYFKYYSLGQGTQVTVSS please.
Reply text: high polyreactivity
